# measurement-target: B1 bradykinin receptor (Homo sapiens)
# method-summary: Antagonist activity at human bradykinin B1 receptor assessed as inhibition of Lys-desArg9-BK-induced calcium flux
# Format: functional
quantity-kind: IC50 (nM)

Use the examples below as a reference point.
1. C=C(CNCCOC)c1ccc2c(c1)CCC[C@H]2NC(=O)C[C@@H](NS(=O)(=O)c1cccc(C(F)(F)F)c1)c1ccccc1    23
2. C=C(CN1CCCCC1)c1ccc2c(c1)CCC[C@H]2NC(=O)C[C@@H](NS(=O)(=O)c1cccc(C(F)(F)F)c1)c1ccccc1    41
3. C=C(CN1CC[C@@H](O)C1)c1ccc2c(c1)CCC[C@H]2NC(=O)C[C@@H](NS(=O)(=O)c1cccc(C(F)(F)F)c1)c1ccccc1    15
4. C=C(CNC(C)C)c1ccc2c(c1)CCC[C@H]2NC(=O)C[C@@H](NS(=O)(=O)c1cccc(C(F)(F)F)c1)c1ccccc1    42

[I] C=C(CNC1CCCC1)c1ccc2c(c1)CCC[C@H]2NC(=O)C[C@@H](NS(=O)(=O)c1cccc(C(F)(F)F)c1)c1ccccc1
[II] C=C(CN1CC[C@H](O)C1)c1ccc2c(c1)CCC[C@H]2NC(=O)C[C@@H](NS(=O)(=O)c1cccc(C(F)(F)F)c1)c1ccccc1
[III] C=C(CNC(C)(C)C)c1ccc2c(c1)CCC[C@H]2NC(=O)C[C@@H](NS(=O)(=O)c1cccc(C(F)(F)F)c1)c1ccccc1
query: # rank_down: sort by IC50, max first Please list the labels according to the requested order.
result: III, I, II
(III: 78 nM, I: 47 nM, II: 3.9 nM)

----------
# measurement-target: B1 bradykinin receptor (Homo sapiens, UniProt P46663)
# Sequence (P46663 whole entry): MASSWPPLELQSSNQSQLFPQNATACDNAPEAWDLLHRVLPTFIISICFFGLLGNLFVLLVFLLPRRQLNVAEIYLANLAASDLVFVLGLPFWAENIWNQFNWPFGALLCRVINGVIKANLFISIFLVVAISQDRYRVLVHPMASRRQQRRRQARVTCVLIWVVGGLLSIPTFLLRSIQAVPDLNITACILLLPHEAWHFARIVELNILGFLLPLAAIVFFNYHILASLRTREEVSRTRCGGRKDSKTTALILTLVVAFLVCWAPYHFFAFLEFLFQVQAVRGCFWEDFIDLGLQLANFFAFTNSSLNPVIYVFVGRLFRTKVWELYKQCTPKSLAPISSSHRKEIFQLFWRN
# method-summary: Antagonist activity at human bradykinin B1 receptor assessed as inhibition of Lys-desArg9-BK-induced calcium flux
quantity-kind: IC50 (nM)

1) C=C(CN(C)C)c1ccc2c(c1)CCC[C@H]2NC(=O)C[C@@H](NS(=O)(=O)c1cccc(C(F)(F)F)c1)c1ccccc1    154
2) CC(CN1CCCCC1)c1ccc2c(c1)CCC[C@H]2NC(=O)C[C@@H](NS(=O)(=O)c1cccc(C(F)(F)F)c1)c1ccccc1 (some centres undefined)    316

[A] C=C(CN1CCC1)c1ccc2c(c1)CCC[C@H]2NC(=O)C[C@@H](NS(=O)(=O)c1cccc(C(F)(F)F)c1)c1ccccc1
[B] O=C(C[C@@H](NS(=O)(=O)c1cccc(C(F)(F)F)c1)c1ccccc1)N[C@@H]1CCCc2cc(C3(CN4CCCCC4)CC3)ccc21
query: Of A versus B , which is the one with smaller reported IC50? Record your answer as the label of the chosen record.
result: B
